Data provenance: ChEMBL document CHEMBL4513216

# test_description: Toxicity liver stage against HepG2, at 10uM
# Format: cell-based
# Parameters: test concentration 10 uM, cell line HepG2-A16-CD81EGFP
# measurement_conditions: human, HepG2-A16-CD81EGFP cells; read-out: INHIBITION
value_kind: cytotoxicity at 10 µM (%)
Note: unit % is implicit; provide only the numeric part.

[[record]]
compound = "Cc1oc(-c2ccccc2)nc1CC(=O)NC1=NCCS1"
reported = 0.898

[[record]]
compound = "Cc1ccn(-c2ccccc2NCc2cccnc2C)n1"
reported = 1.34

[[record]]
compound = "O=C1CCC(C(=O)NCCOc2cccc(Cl)c2Cl)CN1 (configuration not stated)"
reported = 4.48

[[record]]
compound = "CC(C)c1ccc(NS(=O)(=O)C=c2[nH]c(=O)n3cccc3c2=O)cc1"
reported = -4.55

[[record]]
compound = "CC(C)OCCC(=O)Nc1cc(C(=O)N(C)C(C)C)ccc1Cl"
reported = -3.79


# query: cytotoxicity at 10 µM of entry COCCNc1cccc(C2CCCN2)n1 (configuration not stated)
-25.9

# query: cytotoxicity at 10 µM of entry CC(C)c1ncc2c(n1)CN(Cc1ccc(C(N)=O)cc1)CC2
-14.2

# query: cytotoxicity at 10 µM of entry COc1ccccc1OCCNC(=O)NCc1nc(C)no1
6.67

# query: cytotoxicity at 10 µM of entry Cc1cccc(C2(NC(=O)CCCn3cncn3)CCCC2)c1
15

# query: cytotoxicity at 10 µM of entry CCOCC1CCN(C(=O)C(c2ccccc2F)N(C)C)CC1 (configuration not stated)
5.06

# query: cytotoxicity at 10 µM of entry CN(C(=O)c1ccc(-n2ncc(C#N)c2N)cc1)C1CCCC1
-5.1

# query: cytotoxicity at 10 µM of entry COc1cccc(-c2nccnc2C2CCN(C(C)=O)CC2)c1
1.47

###

# test_description: Toxicity liver stage against HepG2, at 10uM
# Assay type: cell-based
# Design: test concentration 10 uM, cell line HepG2-A16-CD81EGFP
# measurement_conditions: human, HepG2-A16-CD81EGFP cells; read-out: INHIBITION
Property: cytotoxicity at 10 µM; scope: individual compounds
Note: unit % is implicit; provide only the numeric part.

[[record]]
compound = "CCOCC(=O)N1CCn2cc(CN(C)Cc3ccco3)nc2C1"
reported = 4.73


# query: cytotoxicity at 10 µM of entry Cc1ccc(S(=O)(=O)N(CC(N)=O)CC(C)C)cc1C
-14.5

# query: cytotoxicity at 10 µM of entry CC(C)C[C@H](NC(=O)c1cc(-c2cccn2C)n[nH]1)C(N)=O
3.7

# query: cytotoxicity at 10 µM of entry O=C1CC2(CCN(CCO)C2)CN1c1cccc(F)c1 (stereo unspecified)
-149

# query: cytotoxicity at 10 µM of entry COc1ccc(CNCCc2ccn(-c3ccccc3)n2)cc1O
-0.13

# query: cytotoxicity at 10 µM of entry CCCN1CCC(CC(=O)N2CC(C)(C)[C@@](C)(O)C2)CC1
2.65

###

# test_description: Toxicity liver stage against HepG2, at 10uM
# Assay type: cell-based
# Design: test concentration 10 uM, cell line HepG2-A16-CD81EGFP
# measurement_conditions: human, HepG2-A16-CD81EGFP cells; read-out: INHIBITION
value_kind: cytotoxicity at 10 µM (%)
Note: unit % is implicit; provide only the numeric part.

Some compounds with recorded cytotoxicity at 10 µM:
[[record]]
compound = "CC(C)c1nnc2n1CC(CNCc1ccc3c(c1)OCCO3)CC2 (stereo unspecified)"
reported = -5.92

[[record]]
compound = "Clc1cncc(NCc2cccc(COC3CCOCC3)c2)n1"
reported = 14.6

[[record]]
compound = "CCNC(c1ccc(C(C)C)cc1)c1cccnc1 (stereo unspecified)"
reported = -1.66

[[record]]
compound = "CCc1oc(C(=O)NCCNS(C)(=O)=O)cc1CN1CCCC1"
reported = 5.53


# query: cytotoxicity at 10 µM of entry Cc1cc(C(=O)N2CCCC2c2c(C)nn(C)c2C)no1 (stereo unspecified)
-2.57

# query: cytotoxicity at 10 µM of entry Cn1cc(NC(=O)N2CCC(Cc3ccccc3)CC2)ccc1=O
1.07
